Recorded IC50 values for a group of molecules are listed next.
Target: KRAS WT (Homo sapiens (Human))
Assay: KRAS WT Biochemical Assay, BODIPY-GDP Exchange TR-FRET (Example 502; 0.06 nM KRAS WT, 15 nM GDP, 300 nM SOS1, 120-minute incubation)
Conditions: read-out: KRas HTRF IC50
Measure: IC50

Cc1c(F)c(N)cc(-c2nc3c4c(nc(OC[C@@H]5COC[C@H]6CCCN65)nc4c2F)N2C[C@H]4CC[C@H](N4)[C@H]2[C@H](C)O3)c1C(F)(F)F (single isomer, unassigned) [121 (isomer 2)] ... 0.0493 µM
Cc1c(F)c(N)cc(-c2nc3c4c(nc(OC[C@@]56CCCN5C/C(=C\F)C6)nc4c2F)N2C[C@H]4CC[C@H](N4)[C@H]2[C@H](C)O3)c1C(F)(F)F ... 0.000738 µM
Cc1c(F)c(N)cc(-c2nc3c4c(nc(OC[C@@H]5CC[C@@H]6CC(C(=O)N(C)C)CCN65)nc4c2F)N2C[C@H]4CC[C@H](N4)[C@H]2[C@H](C)O3)c1C(F)(F)F (single isomer, unassigned) [133 (isomer 3)] ... 0.0233 µM
Cc1c(F)c(N)cc(-c2nc3c4c(nc(OC[C@@]5(CCF)CCCN5C)nc4c2F)N2C[C@H]4CC[C@H](N4)[C@H]2[C@H](C)O3)c1C(F)(F)F (single isomer, unassigned) [127 (isomer 1)] ... 0.0179 µM
Cc1c(F)c(N)cc(-c2nc3c4c(nc(OC[C@@H]5CC[C@H]6C[C@@H](F)CN56)nc4c2F)N2C[C@H]4CC[C@H](N4)[C@H]2[C@H](C)O3)c1C(F)(F)F (single isomer, unassigned) [152 (isomer 1)] ... 0.0157 µM

---

Target: KRAS G12D (Homo sapiens (Human), UniProt P01116, G12D)
Sequence (P01116-2 other isoform, or with tags, fused parts or gaps G12D): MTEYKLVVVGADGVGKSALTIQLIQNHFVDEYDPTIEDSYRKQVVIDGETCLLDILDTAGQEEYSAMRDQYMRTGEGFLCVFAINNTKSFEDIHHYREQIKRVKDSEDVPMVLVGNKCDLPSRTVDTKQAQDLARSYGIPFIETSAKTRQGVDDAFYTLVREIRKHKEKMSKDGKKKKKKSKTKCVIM
Assay: KRAS G12D LoEnz Biochemical Assay, BODIPY-GDP Exchange TR-FRET (SOS1-mediated nucleotide exchange)
Details: read-out: KRas (G12D) GDP HTRF IC50
pIC50: −log10 of the molar value.
Please note: true applies when pIC50 is 9 or greater, and false applies otherwise.

Cc1c(F)c(N)c(F)c(-c2nc3c4c(nc(OC[C@@H]5CC[C@H]6COCCN65)nc4c2F)N2C[C@H]4CC[C@H](N4)[C@H]2[C@H](C)O3)c1C(F)(F)F [Compound 96] ... true
C[C@@H]1Oc2nc(-c3cc(N)ccc3C(F)(F)F)c(F)c3nc(OC[C@@]45CCCN4C[C@H](F)C5)nc(c23)N2C[C@H]3CC[C@H](N3)[C@@H]12 [Compound 72] ... true
Cc1nc(N)cc(-c2nc3c4c(nc(OCC56C[C@@H](F)CN5C[C@H](F)C6)nc4c2F)N2C[C@H]4CC[C@H](N4)[C@H]2[C@H](C(F)(F)F)O3)c1C(F)(F)F [Compound 261] ... false
Cc1c(F)c(N)cc(-c2nc3c4c(nc(OC[C@]5(CN6CC7(COC7)C6)CC5(F)F)nc4c2F)N2C[C@H]4CC[C@H](N4)[C@H]2[C@H](C(F)(F)F)O3)c1C(F)(F)F (stereo in doubt) [255 a] ... true

---

Recorded IC50 for the following compounds
Target: KRAS WT (Homo sapiens (Human), UniProt P01116)
Sequence (P01116-2 other isoform, or with tags, fused parts or gaps): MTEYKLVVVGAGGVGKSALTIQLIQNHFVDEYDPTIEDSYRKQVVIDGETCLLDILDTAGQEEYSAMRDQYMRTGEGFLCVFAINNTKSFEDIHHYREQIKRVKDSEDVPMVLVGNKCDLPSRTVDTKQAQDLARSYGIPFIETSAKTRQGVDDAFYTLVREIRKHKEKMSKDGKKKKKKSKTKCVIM
Assay: KRAS WT Biochemical Assay, BODIPY-GDP Exchange TR-FRET (Example 502; 0.06 nM KRAS WT, 15 nM GDP, 300 nM SOS1, 120-minute incubation)
Conditions: read-out: KRas HTRF IC50
Measure: IC50 (nM)

Cc1c(F)c(N)cc(-c2nc3c4c(nc(OC[C@@]56CCCN5CCN(C)C6=O)nc4c2F)N2C[C@H]4CC[C@H](N4)[C@H]2[C@H](C)O3)c1C(F)(F)F (single isomer, unassigned) [137 (isomer 1)] ... 283
Cc1cc(N)c(F)c(-c2nc3c4c(nc(OC[C@@]56CCCN5C[C@H](F)C6)nc4c2F)N2C[C@H]4CC[C@H](N4)[C@H]2[C@H](C)O3)c1C(F)(F)F ... 4.29
C#Cc1c(F)ccc2cc(N)cc(-c3nc4c5c(nc(OC[C@]67CCN6CC(F)(F)C7)nc5c3F)N3C[C@H]5CC[C@H](N5)[C@H]3[C@H](C)O4)c12 ... 7.75
